Data origin, for the record: the array DNA melting data of Ke et al. (doi:10.1101/2024.01.08.574731)

assay: melting temperature; fluorescence melt of hairpins on a sequencing array, two-state fit, raised by 9.35 °C to match UV melts; conditions: sodium 0.088 M
Everything with Tm lower than 60 °C is condition not met; everything else, including exactly 60 °C, is condition met.

Query string: // inclusive: Tm at least 60 °C? input: GATCGTGAGACGATC ((((((...))))))
Result string: condition not met

Further cases:
Query string: // inclusive: Tm at least 60 °C? input: GATCCATCGCTGGATC ((((((....))))))
Result string: condition not met

Query string: // inclusive: Tm at least 60 °C? input: GCCCAGCGAAAGCGAGGC (((..((....))..)))
Result string: condition met

Query string: // inclusive: Tm at least 60 °C? input: GCCCAGGGAAACCCGGGC ((((.((....)).))))
Result string: condition not met

Query string: // inclusive: Tm at least 60 °C? input: GTATGCGAAAGCAGGTAC ((((((....)))..)))
Result string: condition not met

Query string: // inclusive: Tm at least 60 °C? input: GTGTGCGGAAACGCATGC (..((((....))))..)
Result string: condition not met

---

Quick list: Tm per entry.
test: melting temperature; fluorescence melt of hairpins on a sequencing array, two-state fit, raised by 9.35 °C to match UV melts; conditions: sodium 0.088 M
# value in °C; strip the unit string

Query string: Find the recorded Tm belonging to GCCAGAGGAAACTCCGGC (((.(((....))).))) and report it.
Result string: 45.6

Query string: Find the recorded Tm belonging to GACTCACGAAAGTGCGTC (((.(((....))).))) and report it.
Result string: 50.6

Query string: Find the recorded Tm belonging to GCCTGGGGAAACCCAGAC (.(((((....))))).) and report it.
Result string: 44.5

Query string: Find the recorded Tm belonging to GTGTTCCGAAAGGAGCAC (((.(((....))).))) and report it.
Result string: 59.3

Query string: Find the recorded Tm belonging to GGCTCAACGAAAGTTGCC (((..(((....)))))) and report it.
Result string: 38.2

Query string: Find the recorded Tm belonging to CGGTTCGGAAACGAGCCG (((.(((....))).))) and report it.
Result string: 58.6

Query string: Find the recorded Tm belonging to GATCGGGGTACCGATC ((((((....)))))) and report it.
Result string: 65.7

Query string: Find the recorded Tm belonging to GCTTCACGAAAGTGAGC (((.(((....)))))) and report it.
Result string: 51

---

test: folding enthalpy; higher = less favourable; fluorescence melt of hairpins on a sequencing array, two-state fit; conditions: sodium 0.088 M
Quick list: folding enthalpy per entry.
# value in kcal/mol; strip the unit string

Examples with their reported folding enthalpy follow.
Query string: Find the recorded folding enthalpy belonging to GAAGGACGAAAGTCGTTC (((.(((....))).))) and report it.
Result string: -37.1

Query string: Find the recorded folding enthalpy belonging to GGACTCGAAAGAGCATCC ((((((....)))..))) and report it.
Result string: -9.49

Query string: Find the recorded folding enthalpy belonging to GGCGAAGGAAACTCCGCC ((((.((....)).)))) and report it.
Result string: -34.4

Query string: Find the recorded folding enthalpy belonging to CGGTACGGAAACGTGCCG (((.(((....))).))) and report it.
Result string: -37.5

Query string: Find the recorded folding enthalpy belonging to GTTGGACGAAAGTCTAAC (((.(((....))).))) and report it.
Result string: -26.3

Query string: Find the recorded folding enthalpy belonging to GATCCGAACACGGATC ((((((....)))))) and report it.
Result string: -36.6

Query string: Find the recorded folding enthalpy belonging to GATCGTAGACACGATC ((((((....)))))) and report it.
Result string: -39.8

Query string: Find the recorded folding enthalpy belonging to GTATCCGAAAGGATAC ((((((....)))))) and report it.
Result string: -35.1

Query string: Find the recorded folding enthalpy belonging to CGGCCGGAAACGGAACCG ((((((....)))..))) and report it.
Result string: -26.2

Query string: Find the recorded folding enthalpy belonging to GAGCTGAAAAGCTC (((((....))))) and report it.
Result string: -27.2

Further cases:
Query string: Find the recorded folding enthalpy belonging to GGTCTGGGAAACCAGACC (((((((....))))))) and report it.
Result string: -47.2

Query string: Find the recorded folding enthalpy belonging to GGTCGTGGAAACACGGTC (..((((....))))..) and report it.
Result string: -15.8

Query string: Find the recorded folding enthalpy belonging to GGTATCGAAAGATCACC ((((((....))).))) and report it.
Result string: -21.9

Query string: Find the recorded folding enthalpy belonging to GCCTCGCGAAAGCGCAGC ((..(((....)))..)) and report it.
Result string: -9.54

Query string: Find the recorded folding enthalpy belonging to GTCTGCGAAAGCAGGGAC ((((((....)))..))) and report it.
Result string: -7.79

Query string: Find the recorded folding enthalpy belonging to GATCTGAAAAGATC (((((....))))) and report it.
Result string: -28.2

Query string: Find the recorded folding enthalpy belonging to GCCTACCGAAAGGTCGGC (((.(((....))).))) and report it.
Result string: -39.7

Query string: Find the recorded folding enthalpy belonging to GGTTCCGAAAGGACAACC ((((((....)))..))) and report it.
Result string: -19.9
